# Test system: HT-29
# run description: NCI tumour cell line growth inhibition, 48 h
Active and inactive are the calls of the source. No stated cut-off is given here; in the data, active = GI50 up to about 1.1 µM and inactive = higher.
Give GI50 for every item shown.

// below: answered molecules
* C=C(C)C1CC/C(C)=C/CCC2(C)OC2CC/C(CO)=C\C1O (stereo unspecified) | > 100 µM (inactive)
* Cc1cc(=O)[nH]c(-n2[nH]c3c(c2=O)CCCC3)n1 | 44.5 µM (inactive)
* CC(=O)OC(CC(C)C)P1(=O)N(CC(C)(C)C)[C@@H]2CCCC[C@H]2N1CC(C)(C)C (stereo partly specified) | 7.1 µM (inactive)
* COc1ccc(C(=O)CC(=O)C(=O)Nc2ccc(C)c(C)c2)cc1 | > 100 µM (inactive)
* O=c1c2cc(S(=O)(=O)Nc3ccccc3Cl)ccc2ncn1NS(=O)(=O)c1ccc(Br)cc1 | > 37.5 µM (inactive)
* CN(C)CCOc1cccc2c1C(=O)c1ccccc1C2=O | 6.37 µM (inactive)
* COc1ccc(-c2c(C3=NCCN3)nnn2-c2ccccc2)cc1 | 91.2 µM (inactive)
* CCC(=C(C#N)C#N)c1cc(OC)c(OC)c(OC)c1 | > 100 µM (inactive)

For every item in the list below, what is its measured GI50?
1. Cc1ccc2c(c1C)CC1(Cc3c(C)ccc(C)c3C1=O)C2=O (stereo unspecified)
2. COc1ccc(OC(C)C(=O)O)c2c1CCCC2=O (stereo unspecified)
3. CCN(CC)CCCn1cnc2ncccc2c1=O

result:
1. > 100 µM (inactive)
2. > 100 µM (inactive)
3. > 100 µM (inactive)

====

# System: UACC-62
# run description: NCI tumour cell line growth inhibition, 48 h
The source made the active and inactive calls. Cut-off read from the data, not from the text of the source: active = GI50 up to about 1.1 µM and inactive = higher.
Give GI50 for every item shown.

// below: answered molecules
- C=C(C)C1CC/C(C)=C/CCC2(C)OC2CC/C(CO)=C\C1O (stereo unspecified): 80 µM (inactive)
- CSc1nnnc2ccccc12: > 100 µM (inactive)
- COc1ccc(-c2nc(N)n(C)c2SSc2c(-c3ccc(OC)cc3)nc(N)n2C)cc1: 3.81 µM (inactive)
- CCOC(=O)c1c(C)c2c(n1C)CCc1c[nH]nc1-2: > 100 µM (inactive)
- CN1Cc2ccccc2/C=C\c2ccccc21: 60.8 µM (inactive)

Moving on to another molecule below.
Please fill in: GI50 reported for O=c1c2ncn(C3CCCCO3)c2n(-c2ccccc2)c(=S)n1-c1ccccc1 (stereo unspecified) = 18.5 µM (inactive)

====

# Test system: MCF7
# run description: NCI tumour cell line growth inhibition, 48 h
The source made the active and inactive calls. Cut-off read from the data, not from the text of the source: active = GI50 up to about 1.1 µM and inactive = higher.
Give GI50 for every item shown.

* CCOC(=O)c1c(N2CCOCC2)ncn(-c2cccc(Cl)c2)c1=O | > 100 µM (inactive)
* C1=N/CCNCCNCC/N=C/c2ccccc2OCc2cccc(n2)COc2ccccc2/1 | 21.2 µM (inactive)
* COc1ccc(/C=N/N=C(\N)NO)c(O)c1 | 4.34 µM (inactive)
* C=CO/N=[N+](\[O-])N(CC)CC | > 100 µM (inactive)
* CN(C)/C=N/c1c2c(nc3ccccc13)CCCC2 | 72.9 µM (inactive)

Moving on to another molecule below.
Please fill in: GI50 reported for CSC1=C(C#N)C(=O)N(c2ccc(C)cc2)C(=O)C1C#N (stereo unspecified) = > 100 µM (inactive)

====

# Test system: A498
# run description: NCI tumour cell line growth inhibition, 48 h
The source made the active and inactive calls. Cut-off read from the data, not from the text of the source: active = GI50 up to about 1.1 µM and inactive = higher.
Log the outcome using a class from active, inactive

Before answering, review these 5 worked examples.
* CC(C)(CO)CNc1cc(=O)[nH]c(N)n1 | inactive
* c1ccc(C2=NOC3(c4ccccc4)SC4CCCCC4CN23)cc1 (centres undefined) | inactive
* Cc1cccc(C)c1NC(=O)C1C(=O)N(c2c(C)cccc2C)C(=O)/C1=N\NC(N)=S (centres undefined) | inactive
* NCCNCCNc1ccc(NCCNCCN)c2c1C(=O)c1c(O)ccc(O)c1C2=O | inactive
* Clc1ccc(C2=CC(c3ccccc3)N3C(=N[C@H]4CCCC[C@@H]43)N2)cc1 (some centres undefined) | inactive

query: Tell me the recorded outcome of this test for CSc1nnc(SC)nn1 .
result: inactive

query: Tell me the recorded outcome of this test for CNc1nc(=S)[nH]c2sc3c(c12)CCCC3 .
result: inactive
